# Test system: OVCAR-5
# Assay method text: NCI tumour cell line growth inhibition, 48 h
The source made the active and inactive calls. No stated cut-off is given here; in the data, active = GI50 up to about 1.1 µM and inactive = higher.
# GI50 annotations

A selection of reference data follows.
>  <Molecule>
Cc1ccc(NC(=O)CCc2nnc(N)o2)cc1

>  <Target or system>
OVCAR-5

>  <GI50>
> 100 µM (inactive)

$$$$
>  <Molecule>
Cc1c(O)c(=O)ccn1CCN

>  <Target or system>
OVCAR-5

>  <GI50>
> 100 µM (inactive)

$$$$
>  <Molecule>
Cc1cc2c(cc1C)OC(=O)CC2

>  <Target or system>
OVCAR-5

>  <GI50>
> 100 µM (inactive)

$$$$

Give me measured GI50, please, for this molecule: `COC(=O)[C@H](COC(=O)/C=C/c1ccc(OC(C)=O)c(OC(C)=O)c1)NC(=O)/C=C/c1ccc(OC(C)=O)c(OC(C)=O)c1`
23.4 µM (inactive)

Give me measured GI50, please, for this molecule: `CCOC(=O)Cn1nc2ccc(Nc3nc4ccccc4nc3C(=O)OCC)cc2n1`
> 100 µM (inactive)

Give me measured GI50, please, for this molecule: `CN(N=O)C(=N)NC(=O)c1ccccc1`
> 100 µM (inactive)

Give me measured GI50, please, for this molecule: Nc1ncnc2c1ncn2C1OC(CSC(F)F)C(O)C1O (centres undefined)
> 100 µM (inactive)

Give me measured GI50, please, for this molecule: `COc1ccc(/C(Cl)=C(\C=O)c2ccc(Br)cc2)cc1OC`
> 100 µM (inactive)

Give me measured GI50, please, for this molecule: Nc1nc(Cl)cc(NCC2(CO)CC(CCCCc3ccccc3)C2)n1 (centres undefined)
> 100 µM (inactive)

Give me measured GI50, please, for this molecule: `CCN(CC)CCNc1nc(N)c(C#N)c(C#N)c1C#N`
> 10 µM (inactive)

Give me measured GI50, please, for this molecule: `C=CCN(c1cc(OC)c2[nH]c(C(=O)OCC)c(C)c2c1[N+](=O)[O-])S(C)(=O)=O`
29.3 µM (inactive)

Give me measured GI50, please, for this molecule: `CCOC(=O)C1=C(O)C(=O)c2cc(C)ccc2C1=O`
> 100 µM (inactive)

Give me measured GI50, please, for this molecule: CC1CN=C(N(C)C(=O)Nc2ccc(Cl)c(Cl)c2)S1 (centres undefined)
15.2 µM (inactive)

Give me measured GI50, please, for this molecule: `COC(=O)Nc1nc2cc(NC(=O)c3ccc(I)cc3)ccc2[nH]1`
> 100 µM (inactive)

Give me measured GI50, please, for this molecule: Cn1c2c(c3ccccc31)CCN1C(=O)C3SC21C1C(=O)N(c2ccccc2)C(=O)C31 (centres undefined)
> 100 µM (inactive)

Give me measured GI50, please, for this molecule: COc1cc2c(cc1OC)C1C=NC(C2)c2cc(OC)c(OC)cc21 (centres undefined)
> 100 µM (inactive)

Give me measured GI50, please, for this molecule: `CCOC(=O)c1cccc([N+](=O)[O-])c1N`
> 100 µM (inactive)
